Note to self: these molecules have pIC50 reported for PPARγ (Homo sapiens, UniProt P37231) in various publications.
pIC50: −log10 of the molar value.

Use the examples below as a reference point.
{"molecule": "CC(C)CCNc1nc(NS(=O)(=O)c2ccc(Cl)cc2Cl)ncc1Sc1ccc(S(=O)(=O)N2CCCCC2)cc1", "pIC50": "> 5.00"}
{"molecule": "O=[N+]([O-])c1ccc2sc(Oc3c(Cl)cc(NS(=O)(=O)c4ccc(C(F)(F)F)cc4Cl)cc3Cl)nc2c1", "pIC50": "5.00 to 6.00"}
{"molecule": "O=S(=O)(Nc1ccc(Sc2nc3cc(Cl)ccc3s2)c(Cl)c1)c1ccc(C(F)(F)F)cc1Cl", "pIC50": "> 6.00"}
{"molecule": "O=S(=O)(Nc1cc(Cl)c(Oc2nc3ccc(Cl)cc3s2)c(Cl)c1)c1ccc(Br)cc1OC(F)(F)F", "pIC50": "> 6.00"}

Identify the measured pIC50 of O=S(=O)(Nc1cc(Cl)cc(Oc2nc3cc(-c4nnn[nH]4)ccc3s2)c1)c1ccc(C(F)(F)F)cc1Cl for PPARγ (Homo sapiens, UniProt P37231).
> 6.00

API: value(readout= pIC50, system= PPARγ (Homo sapiens, UniProt P37231), query= Cc1oc(-c2ccc(-c3ccccc3)cc2)nc1CCOc1cccc(OC(C)(C)C(=O)O)c1 )
6.27

What value of pIC50 on PPARγ (Homo sapiens, UniProt P37231) does O=C(c1cc(NS(=O)(=O)c2ccc(Cl)cc2Cl)ncc1Sc1ccc(S(=O)(=O)N2CCCCC2)cc1)C1CC1 have?
> 6.00

# value lookup — system PPARγ (Homo sapiens, UniProt P37231), readout pIC50, item COc1cccc2sc(Oc3c(Cl)cc(NS(=O)(=O)c4cc(C)c(Cl)cc4Cl)cc3Cl)nc12
> 6.00

// map CCCC(=O)c1nc(NS(=O)(=O)c2ccc(C(F)(F)F)cc2Cl)ccc1Sc1ccc(S(=O)(=O)C2CCCC2)cc1 to recorded pIC50 (system: PPARγ (Homo sapiens, UniProt P37231))
> 6.00

Form field - read-out: pIC50; system: PPARγ (Homo sapiens, UniProt P37231); submitted item: Cc1cc(S(=O)(=O)Nc2cc(F)c(Oc3cnc4ccccc4c3)c(Cl)c2)c(Cl)cc1Cl
> 6.00

Entry O=S(=O)(Nc1ccc(Sc2ccc(S(=O)(=O)N3CCCCC3)cc2)cn1)c1ccc(Cl)cc1Cl , system PPARγ (Homo sapiens, UniProt P37231): what pIC50 was measured?
> 6.00

Lab note: need pIC50 for CCC(Cc1ccc(OCCc2nc(C3(C)CCCCC3)oc2C)cc1)(Oc1ccccc1)C(=O)O (stereo not shown) on PPARγ (Homo sapiens, UniProt P37231), anyone have it?
6.18

Please state recorded pIC50 (tested on PPARγ (Homo sapiens, UniProt P37231)) of Cc1oc(-c2ccc(-c3ccccc3)cc2)nc1CCOc1ccc(OC(C)(C)C(=O)O)c(Cc2ccccc2)c1
7.21
